# TGI annotations
# System: DU-145 prostate
# experiment: NCI tumour cell line growth inhibition, 48 h

INSERT INTO measurements (molecule, measured) VALUES
  ('CCc1nc(N)nc(N)c1-c1ccc(NCCc2ccccc2)c([N+](=O)[O-])c1', '> 53.8 µM');

Ask: For CCN1C(=O)N(c2ccccc2)C2NN=c3s/c(=C4\C(=O)N(C(C)C)c5ccccc54)c(=O)n3C21 (centres undefined) , what is its reported TGI?
Reply: > 29.4 µM

Ask: For CN(C)C(=O)Oc1ccc(-c2cn3cc(NC(=O)c4ccccc4)ccc3n2)cc1 , what is its reported TGI?
Reply: > 100 µM
